- Target or system: HLA-B*0702 (Homo sapiens)
- Construct: purchased ProImmune
- Procedure summary: ProImmune REVEAL MHC class I binding assay of nonamers
- Conditions: score as % of positive control peptide
- Text: The number of HLA class I binding registers contained in each peptide may be determined by determining the ability of the peptide to bind to a range of frequently occurring HLA class I molecules. HLA class I binding may be measured using the ProImmune REVEAL® MHC-peptide Binding Assay (ProImmune Ltd, Oxford, UK). […]
Readout label: Number of nonamers having a binding score >= 45%, HLA-B*0702
Just the number.

What measured Number of nonamers having a binding score >= 45%, HLA-B*0702 goes with NP376: unconjugated HBV long peptide, polymerase 359-398 (C to S substitution at 393) (KLHLYSHPIILGFRKIPMGVGLSPFLLAQFTSAISSVVRR; HBV CONSENSUS SEQUENCE) ? 4

// Number of nonamers having a binding score >= 45%, HLA-B*0702 lookup, key: NP113: unconjugated HBV long peptide, polymerase region 96-130 of virtual HBV proteome (VGPLTVNEKRRLKLIMPARFYPNVTKYLPLDKGIK; HBV CONSENSUS SEQUENCE) 2

Consider the substance shown here: NP856(K): unconjugated HBV long peptide, core 839-873 + KKK (LTFGRETVLEYLVSFGVWIRTPPAYRPPNAPILSTKKK; HBV CONSENSUS SEQUENCE) What is its recorded Number of nonamers having a binding score >= 45%, HLA-B*0702? 2

###

- Target or system: HLA-A*0201 (Homo sapiens, UniProt P04439, D140Y/D185E/D98H/E176V/E277Q/G131W/G231S/I119V/I121R/I166T/I218V/L300P/L318F/N151K/N90K/P208A/P217A/Q86G/Q94H/R138H/R169H/T345S)
- Procedure summary: ProImmune REVEAL MHC class I binding assay of nonamers
- Conditions: score as % of positive control peptide
- From the text: The number of HLA class I binding registers contained in each peptide may be determined by determining the ability of the peptide to bind to a range of frequently occurring HLA class I molecules. HLA class I binding may be measured using the ProImmune REVEAL® MHC-peptide Binding Assay (ProImmune Ltd, Oxford, UK). […]
Readout label: Number of nonamers having a binding score >= 45%, HLA-A*0201

Past entries and their recorded results:
NP753(K): unconjugated HBV long peptide, core KK + 738-770 (S to T at 743) + KKK (KKKEFGATVELLSFLPSDFFPSVRDLLDTASALYRKKK; HBV CONSENSUS SEQUENCE) | 3
NP277(K): unconjugated HBV long peptide, polymerase 260-293 + KKK (RVSWPKFAVPNLQSLTNLLSSNLSWLSLDVSAAFYHKKK; HBV CONSENSUS SEQUENCE) | 6

Next up:
Sample NP856(K): unconjugated HBV long peptide, core 839-873 + KKK (LTFGRETVLEYLVSFGVWIRTPPAYRPPNAPILSTKKK; HBV CONSENSUS SEQUENCE) — what was its Number of nonamers having a binding score >= 45%, HLA-A*0201? 4

###

- System: HLA class I alleles
- Procedure summary: ProImmune REVEAL MHC class I binding assay, summary over the seven alleles
- Design: species or system human
- Conditions: number of class I alleles for which positive binding was detected
Each entry below carries its reported Number of allele (b).
I only need the number, thanks.

Worked set:
NP151: unconjugated HBV long peptide, polymerase region 134-168 (PEHVVNHYFQTRHYLHTLWKAGILYKRETTRSASF; HBV CONSENSUS SEQUENCE) | 6
NP277(K): unconjugated HBV long peptide, polymerase 260-293 + KKK (RVSWPKFAVPNLQSLTNLLSSNLSWLSLDVSAAFYHKKK; HBV CONSENSUS SEQUENCE) | 5
NP856(K): unconjugated HBV long peptide, core 839-873 + KKK (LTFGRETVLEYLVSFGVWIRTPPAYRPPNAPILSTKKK; HBV CONSENSUS SEQUENCE) | 4
NP113: unconjugated HBV long peptide, polymerase region 96-130 of virtual HBV proteome (VGPLTVNEKRRLKLIMPARFYPNVTKYLPLDKGIK; HBV CONSENSUS SEQUENCE) | 7

// fetch HLA class I alleles Number of allele (b) for NP753(K): unconjugated HBV long peptide, core KK + 738-770 (S to T at 743) + KKK (KKKEFGATVELLSFLPSDFFPSVRDLLDTASALYRKKK; HBV CONSENSUS SEQUENCE) 6

What Number of allele (b) appears in the records for this substance with HLA class I alleles? NP376: unconjugated HBV long peptide, polymerase 359-398 (C to S substitution at 393) (KLHLYSHPIILGFRKIPMGVGLSPFLLAQFTSAISSVVRR; HBV CONSENSUS SEQUENCE) 6

###

- Target or system: HLA-A*2402 (Homo sapiens, UniProt P04439, D101N/D140Y/D185E/E176V/E190D/F33S/G103R/G107R/I119L/I121M/I306V/K335N/L105A/L180Q/L300P/N151K/N90K/Q86E/Q94H/R106L/R138H/R89G/T104I/T345S/V100E/W191G/Y123F)
- Procedure summary: ProImmune REVEAL MHC class I binding assay of nonamers
- Conditions: score as % of positive control peptide
Readout label: Number of nonamers having a binding score >= 45%, HLA-A*2402

In the examples that follow, each entry is paired with its recorded Number of nonamers having a binding score >= 45%, HLA-A*2402.
NP376: unconjugated HBV long peptide, polymerase 359-398 (C to S substitution at 393) (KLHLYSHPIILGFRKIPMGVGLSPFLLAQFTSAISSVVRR; HBV CONSENSUS SEQUENCE) | 10
NP753(K): unconjugated HBV long peptide, core KK + 738-770 (S to T at 743) + KKK (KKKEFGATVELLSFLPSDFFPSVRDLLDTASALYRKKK; HBV CONSENSUS SEQUENCE) | 3

Now, please, on to the next substance.
Query: Number of nonamers having a binding score >= 45%, HLA-A*2402; subject: NP113: unconjugated HBV long peptide, polymerase region 96-130 of virtual HBV proteome (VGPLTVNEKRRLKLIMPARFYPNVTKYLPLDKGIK; HBV CONSENSUS SEQUENCE) 3

###

- System: HLA-DR3 (α1*01:01;β1*03:0)
- Procedure summary: ProImmune REVEAL MHC class II binding assay of long peptides
- Design: species or system human
- Conditions: percentage of the signal of the positive control peptide; positive binding score >=15%
Overview of reported binding score, HLA-DR3 (α1*01:01;β1*03:0) across a group of substances:
Field: numeric (%). Do not append units.

NP277(K): unconjugated HBV long peptide, polymerase 260-293 + KKK (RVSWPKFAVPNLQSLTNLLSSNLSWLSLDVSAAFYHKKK; HBV CONSENSUS SEQUENCE) | 0.10
NP856(K): unconjugated HBV long peptide, core 839-873 + KKK (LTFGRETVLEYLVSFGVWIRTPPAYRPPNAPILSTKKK; HBV CONSENSUS SEQUENCE) | 0.13
NP151: unconjugated HBV long peptide, polymerase region 134-168 (PEHVVNHYFQTRHYLHTLWKAGILYKRETTRSASF; HBV CONSENSUS SEQUENCE) | 0.00
NP376: unconjugated HBV long peptide, polymerase 359-398 (C to S substitution at 393) (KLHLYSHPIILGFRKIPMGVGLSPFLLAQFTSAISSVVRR; HBV CONSENSUS SEQUENCE) | 0.00
NP113: unconjugated HBV long peptide, polymerase region 96-130 of virtual HBV proteome (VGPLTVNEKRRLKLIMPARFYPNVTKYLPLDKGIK; HBV CONSENSUS SEQUENCE) | 49.98

Continue with the next substance.
What value of measured binding score, HLA-DR3 (α1*01:01;β1*03:0) is listed for NP753(K): unconjugated HBV long peptide, core KK + 738-770 (S to T at 743) + KKK (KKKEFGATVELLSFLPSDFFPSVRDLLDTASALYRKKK; HBV CONSENSUS SEQUENCE) ? 0.00
